B1: Advillin, residues 785 to 819; numbered along this chain, O75366 (parent)
chain: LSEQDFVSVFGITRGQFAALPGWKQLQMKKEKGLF

Variants of: B1
assayText: abundance fitness (aPCA) (normalised: wild type 0, dead -1); higher = more abundant; growth selection in yeast, the domain comes from the species named
settings: Homo sapiens
quantity: abundance fitness
Number, no unit, nothing else.

These solved cases illustrate the format of a correct answer.
K24H -0.61
Q27F -0.416
G22N -0.2

Query string: Consider the variant shown here: `K32V` What is its recorded abundance fitness?
Result string: -0.103

Query string: Also `V9D` ?
Result string: -0.443

Query string: Also `A19E` ?
Result string: 0.021

Query string: Also `Q25K` ?
Result string: -0.31

Query string: Also `Q4E` ?
Result string: 0.018

Query string: Also `Q16M` ?
Result string: -0.279
